target: cdk5/cyclin D3 (Homo sapiens, UniProt Q00534); assay: cdk5/cyclin D3 kinase (Table 2); format: biochemical; details: 15 μM ATP
Sequence (Q00534 whole entry): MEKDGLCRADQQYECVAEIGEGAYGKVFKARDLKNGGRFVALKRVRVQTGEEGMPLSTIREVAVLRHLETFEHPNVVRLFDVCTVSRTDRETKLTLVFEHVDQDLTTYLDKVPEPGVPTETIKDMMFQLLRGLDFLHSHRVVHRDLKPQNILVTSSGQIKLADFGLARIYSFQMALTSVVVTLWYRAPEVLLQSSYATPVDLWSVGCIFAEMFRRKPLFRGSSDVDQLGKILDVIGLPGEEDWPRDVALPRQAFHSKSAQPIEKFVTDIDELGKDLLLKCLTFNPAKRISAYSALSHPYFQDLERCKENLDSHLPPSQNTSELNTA
MEASUREMENT LABEL: IC50

Please fill in: IC50 reported for `Cn1cnc2c(NCc3ccccc3)nc(NCCO)nc21` = > 250 µM

---

target: Casein 2 kinase (Rattus norvegicus); construct: isolated from cytosol of the liver of the rat; from tissue; host or cells: rat liver cytosol; test: casein 2 kinase; type: biochemical; conditions: 15 μM ATP; − = no inhibitory effect, highest concentration tested in parentheses
Sequence (P19139 whole entry): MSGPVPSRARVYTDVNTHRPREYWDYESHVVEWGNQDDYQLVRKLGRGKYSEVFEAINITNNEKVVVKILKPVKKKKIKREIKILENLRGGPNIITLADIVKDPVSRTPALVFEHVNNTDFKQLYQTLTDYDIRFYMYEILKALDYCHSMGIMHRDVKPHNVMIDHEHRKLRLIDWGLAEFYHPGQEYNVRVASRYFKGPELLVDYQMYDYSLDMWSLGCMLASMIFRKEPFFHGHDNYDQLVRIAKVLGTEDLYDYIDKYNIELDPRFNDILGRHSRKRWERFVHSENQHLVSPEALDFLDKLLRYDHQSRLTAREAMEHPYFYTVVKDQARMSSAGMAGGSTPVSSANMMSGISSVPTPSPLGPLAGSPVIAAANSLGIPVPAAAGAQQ
Sequence (P67874 whole entry partner): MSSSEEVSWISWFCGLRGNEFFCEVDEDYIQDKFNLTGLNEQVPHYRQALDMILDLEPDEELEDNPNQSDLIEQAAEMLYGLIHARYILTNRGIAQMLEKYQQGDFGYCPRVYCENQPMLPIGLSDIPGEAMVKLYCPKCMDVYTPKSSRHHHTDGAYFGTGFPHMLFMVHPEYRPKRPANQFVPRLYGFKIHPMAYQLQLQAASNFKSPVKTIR
MEASUREMENT LABEL: IC50

Here Cn1cnc2c(NCc3ccccc3)nc(NCCO)nc21 [olomoucine] was tested on Casein 2 kinase (Rattus norvegicus), and its IC50 came to > 2000 µM
